Assay: Mouse pharmacokinetic assay (intragastric administration, plasma HPLC-MS/MS)
Format: in vivo
Settings: mouse, po; ICR mice, intragastric, 20 mg/kg, plasma
measurementName: Tmax

givenSmiles	measurementName	testValue
CC(=O)c1nc(Sc2cccc(-c3ncco3)c2Cl)c(N)nc1N1CCC2(CC1)Oc1ccccc1[C@H]2N	Tmax	4 h

###

Assay: Mouse pharmacokinetic assay (intragastric administration, plasma HPLC-MS/MS)
Format: in vivo
Details: mouse, po; ICR mice, intragastric, 10 mg/kg, plasma

givenSmiles	unitSpec	Cmax
[2H][C@@]1(N)c2ccccc2OC12CCN(c1nc(N)c(Sc3ccnc(N)c3Cl)nc1C(C)=O)CC2	ng/mL	3570

###

Assay: Mouse tolerance assay (once daily for 7 consecutive days)
Type: in vivo
Settings: mouse, in vivo; female ICR mice, once daily for 7 days; read-out: mouse maximum tolerated dose MTD

compound	MTD at 7 days
Nc1nc(N2CCC3(CC2)Oc2ccccc2[C@H]3N)cnc1Sc1ccnc(N)c1Cl [TW-45, reference compound]	< 200 mg/kg

###

Assay: Mouse tolerance assay (once daily for 7 consecutive days)
Format: in vivo
Conditions: female, ICR, mouse, in vivo

givenSmiles	MTD at 7 days
[2H][C@@]1(N)c2ccccc2OC12CCN(c1nc(N)c(Sc3ccnc(N)c3Cl)nc1C(C)=O)CC2	> 200 mg/kg

###

Test: Mouse pharmacokinetic assay (intragastric administration, plasma HPLC-MS/MS)
Assay type: in vivo
Details: mouse, po; ICR mice, intragastric, 10 mg/kg, plasma
measurementName: Tmax (min)

givenSmiles	testValue
[2H][C@@]1(N)c2ccccc2OC12CCN(c1nc(N)c(Sc3ccnc(N)c3Cl)nc1C(C)=O)CC2	30

###

Test: Mouse pharmacokinetic assay (intragastric administration, plasma HPLC-MS/MS)
Type: in vivo
Settings: mouse, po; ICR mice, intragastric, 20 mg/kg, plasma

compound	unitSpec	Cmax
CC(=O)c1nc(Sc2cccc(-c3ncco3)c2Cl)c(N)nc1N1CCC2(CC1)Oc1ccccc1[C@H]2N [Compound 1]	µg/mL	2.49

Origin of measurements: patent US20240376119A1
